Reference source: patent US6514989B1

# target_entity: human adenosine A1 receptor (Homo sapiens)
# Construct: membrane preparation
# Sequence (P30542 whole entry): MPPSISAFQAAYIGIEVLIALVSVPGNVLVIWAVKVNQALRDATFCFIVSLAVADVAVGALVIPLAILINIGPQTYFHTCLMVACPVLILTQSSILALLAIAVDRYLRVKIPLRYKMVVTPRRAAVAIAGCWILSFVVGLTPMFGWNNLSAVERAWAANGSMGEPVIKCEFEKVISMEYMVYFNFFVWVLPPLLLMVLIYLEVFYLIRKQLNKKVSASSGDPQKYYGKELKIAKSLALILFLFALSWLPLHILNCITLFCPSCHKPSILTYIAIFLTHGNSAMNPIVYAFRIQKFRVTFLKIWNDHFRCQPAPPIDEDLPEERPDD
# test_name: Human adenosine A1 receptor radioligand binding assay ([3H]-DPCPX, SPA, CHO cell membranes)
# condition_set: recombinant human A1 receptor expressed in CHO cells; [3H]-DPCPX 0.6 nM; Ki from IC50 by Cheng-Prussoff equation; read-out: hA1 Ki
# Experimental: Human Adenosine A^1 Receptor The gene encoding human adenosinie A1 receptor was recombinantly introduced and expressed in chinese hamster ovary (CHO) cells using the semliki forest virus expression system. […] Assay plates were incubated for 1 hour at room temperature before centrifugation and then bound ligand determined using a Packard Topcount scintillation counter. IC50 values were calculated using a non-linear curve fitting program and Ki values calculated using the Cheng-Prussoff equation. […]
Ki vs 3 µM: less than gives criterion met; not less than gives criterion not met.

- line_notation: "CCc1ccc(C(=O)Nc2nc3c(OC)ccc(-c4cccs4)n3n2)cc1"
  target_entity: "human adenosine A1 receptor (Homo sapiens)"
  discrete_label: "criterion not met"
- line_notation: "COc1ccc(-c2cccs2)n2nc(NC(=O)c3cccc(Cl)c3)nc12"
  target_entity: "human adenosine A1 receptor (Homo sapiens)"
  discrete_label: "criterion met"
- line_notation: "COc1ccc(C(=O)Nc2nc3c(OC)ccc(-c4ccccc4)n3n2)cc1"
  target_entity: "human adenosine A1 receptor (Homo sapiens)"
  discrete_label: "criterion not met"
- line_notation: "COc1ccc(-c2cccc(F)c2)n2nc(NC(=O)c3ccc(C)s3)nc12"
  target_entity: "human adenosine A1 receptor (Homo sapiens)"
  discrete_label: "criterion met"
- line_notation: "COc1ccc(C(=O)Nc2nc3c(OC)ccc(-c4cccs4)n3n2)cc1"
  target_entity: "human adenosine A1 receptor (Homo sapiens)"
  discrete_label: "criterion not met"
- line_notation: "COc1ccc(-c2cccc(Cl)c2)n2nc(NC(=O)c3ccc(C)s3)nc12"
  target_entity: "human adenosine A1 receptor (Homo sapiens)"
  discrete_label: "criterion met"
